# target or system: P-Rex1 DHPH domain (Homo sapiens, UniProt Q8TCU6)

# compound, IC50
records = [
    ("COc1ccc(-c2[nH]nc3c2C(c2ccc(-c4ccc(Cl)cc4)o2)C(C#N)=C(N)O3)cc1 (stereo not shown)", "~10 µM"),
]

---

# target or system: P-Rex1 DHPH domains (Homo sapiens, UniProt Q8TCU6)
# Construct: 100 nM EE-P-Rex1 DHPH domains (PREX-in1, compounds 2–10 and 30–128)
# Sequence (Q8TCU6 49-392 limits assumed): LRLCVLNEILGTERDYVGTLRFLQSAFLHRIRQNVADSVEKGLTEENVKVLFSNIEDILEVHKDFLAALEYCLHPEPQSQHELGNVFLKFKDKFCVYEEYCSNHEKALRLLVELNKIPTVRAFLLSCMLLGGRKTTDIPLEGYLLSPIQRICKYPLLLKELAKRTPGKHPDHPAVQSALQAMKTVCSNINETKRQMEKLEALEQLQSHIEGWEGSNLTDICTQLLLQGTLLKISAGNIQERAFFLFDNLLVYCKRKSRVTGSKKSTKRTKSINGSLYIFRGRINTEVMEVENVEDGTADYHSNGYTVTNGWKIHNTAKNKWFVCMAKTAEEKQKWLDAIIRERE
# test method notes: Liposome-based GEF activity assay, isolated P-Rex1 DHPH domains
# stated conditions: liposome-based GEF assay, 200 nM prenylated EE-Rac2 as substrate; read-out: IC50 of inhibition of P-Rex1 DHPH Rac-GEF activity

# compound, target or system, IC50 / nM
data = [
    ("N#CC1=C(N)Oc2n[nH]c(-c3ccc(C(F)(F)F)cc3)c2C1c1ccc(-c2ccc(Cl)cc2)o1 (stereo not drawn)", "P-Rex1 DHPH domains (Homo sapiens, UniProt Q8TCU6)", 2700),
    ("COc1ccc(-c2[nH]nc3c2C(c2ccc(-c4ccc(OC)c(Cl)c4)o2)C(C#N)=C(N)O3)cc1 (stereo not drawn)", "P-Rex1 DHPH domains (Homo sapiens, UniProt Q8TCU6)", 2000),
    ("COc1ccc(-c2[nH]nc3c2C(c2ccc(-c4ccc(Cl)cc4)o2)C(C#N)=C(N)O3)cc1 (stereo not drawn)", "P-Rex1 DHPH domains (Homo sapiens, UniProt Q8TCU6)", 4500),
]

---

# target or system: P-Rex1 DHPH domains (Homo sapiens)
# Construct: 100 nM EE-P-Rex1 DHPH domains (PREX-in1, compounds 2–10 and 30–128); made in house; host or cells: Sf9 cells (baculovirus)
# test method notes: Liposome-based GEF activity assay, isolated P-Rex1 DHPH domains
# Assay type: biochemical
# stated conditions: 10 µM compound; 100 nM EE-P-Rex1 DHPH domains, 200 nM prenylated EE-Rac1; PREX-in1, compounds 2-10 and 30-128
# Protocol: Full-length N-terminally EE-tagged P-Rex1, P-Rex2, the P-Rex1 DH and DHPH domains and the P-Rex2 DH domain were produced in Sf9 cells using baculoviral transduction and were purified using anti-EE beads, as previously described. […] Protein concentration and purity were determined by coomassie staining of SDS-PAGE gels. […]
# remaining activity at 10 µM per record follows
result type: remaining activity at 10 µM (%)

# compound, result type, assay value
measured = [
    ("COc1ccc(-c2ccc(C3C(C#N)=C(N)Oc4n[nH]c(-c5ccc(Cl)cc5)c43)o2)cc1Cl (stereo not drawn) [#76]", "remaining activity at 10 µM", -2.19),
    ("COc1ccc(-c2ccc(C3C(C#N)=C(N)Oc4n[nH]c(-c5ccc(C)cc5)c43)o2)cc1Cl (stereo not drawn) [#72]", "remaining activity at 10 µM", 1.69),
    ("CC1CCC(C(C)C)c2nn(C(=O)/C=C\\c3ccccc3)c(-c3cccc4ccccc34)c21 (stereo not drawn) [#10]", "remaining activity at 10 µM", 28),
    ("COc1ccc(-c2[nH]nc3c2C(c2ccc(-c4ccc(Cl)cc4)o2)C(C#N)=C(N)O3)cc1 (stereo not drawn) [PREX-in1]", "remaining activity at 10 µM", 3),
    ("COc1ccc(-c2[nH]nc3c2C(c2ccc(-c4ccc(OC)c(Cl)c4)o2)C(C#N)=C(N)O3)cc1 (stereo not drawn) [#61]", "remaining activity at 10 µM", 2),
    ("N#CC1=C(N)Oc2n[nH]c(-c3ccc(C(F)(F)F)cc3)c2C1c1ccc(-c2ccc(Cl)cc2)o1 (stereo not drawn) [#116]", "remaining activity at 10 µM", 9),
]
